# target: cloned rat PDE10A full-length enzyme (Rattus norvegicus, UniProt Q9QYJ6)
# Construct: cloned rat PDE10A full-length enzyme grown in transfected Sf9 insect cells
# Sequence (Q9QYJ6 whole entry): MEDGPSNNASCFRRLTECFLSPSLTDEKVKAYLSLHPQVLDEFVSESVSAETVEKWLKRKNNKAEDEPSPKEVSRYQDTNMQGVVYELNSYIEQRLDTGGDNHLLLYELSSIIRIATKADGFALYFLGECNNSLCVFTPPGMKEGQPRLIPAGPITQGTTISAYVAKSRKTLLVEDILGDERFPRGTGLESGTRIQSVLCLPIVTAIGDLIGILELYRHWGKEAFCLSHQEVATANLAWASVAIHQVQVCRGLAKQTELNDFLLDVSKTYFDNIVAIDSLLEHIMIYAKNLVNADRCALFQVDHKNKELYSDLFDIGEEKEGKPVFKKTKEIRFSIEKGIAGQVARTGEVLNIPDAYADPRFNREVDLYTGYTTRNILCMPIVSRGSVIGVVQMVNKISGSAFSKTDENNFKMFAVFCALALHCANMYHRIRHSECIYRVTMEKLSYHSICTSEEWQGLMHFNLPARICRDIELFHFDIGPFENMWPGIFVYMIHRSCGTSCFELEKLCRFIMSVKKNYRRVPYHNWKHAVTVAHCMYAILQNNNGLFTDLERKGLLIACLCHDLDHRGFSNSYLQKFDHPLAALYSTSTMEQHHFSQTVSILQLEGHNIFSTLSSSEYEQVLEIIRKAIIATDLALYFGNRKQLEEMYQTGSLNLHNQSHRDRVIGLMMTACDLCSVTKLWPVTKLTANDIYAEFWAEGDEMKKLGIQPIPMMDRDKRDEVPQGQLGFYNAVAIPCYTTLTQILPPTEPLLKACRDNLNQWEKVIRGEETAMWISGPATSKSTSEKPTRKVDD
# protocol-notes: PDE10 enzyme inhibition, [3H]cAMP scintillation proximity assay
# experimental-setup: rat PDE10A from Sf9 cells, 20 nM [3H]cAMP, SPA beads, 20 minute incubation at room temperature
Structures can show the parent of a compound that is named as a salt.
quantity-measured: pIC50
Numbers only, as −log10 of the molar value.

These recorded examples may help you get a feel for the data.
Cc1ccc(-n2cc(-c3ccccn3)nc2-c2ccc(-n3ccc4ccncc43)cc2)cn1 [Example 53] ... 8.24
C#Cc1cc(C)cnc1N [Example 22A, 3-ethynyl-5-methylpyridin-2-amine] ... 8.47
COc1ccc(-n2cc(-c3cccs3)nc2-c2ccc(-n3ccc4cccnc43)cc2)cc1 [Example 1] ... 8.47
COc1ccc(-n2cc(-c3ccccn3)nc2-c2ccc(-n3ccc4cccnc43)cc2)cn1 [Example 9] ... 8.51
Cc1ccc(-n2cc(-c3cccc[n+]3[O-])nc2-c2ccc(-n3ccc4cccnc43)cc2)cn1 [Example 16] ... 7.91
Cc1ccc(-n2cc(-c3ccccn3)nc2-c2ccc(-n3ncc4ccncc43)cc2)cn1 [Example 56] ... 8.19
CN(C)c1ccc(-n2cc(-c3nccs3)nc2-c2ccc(-n3ccc4cccnc43)cc2)cn1 [Example 30] ... 9.22
Cc1ccc(-n2cc(-c3ccccn3)nc2-c2ccc(-n3c(C(C)C)nc4cccnc43)cc2)cn1 [Example 59] ... 9.08

Go through the items and report each one's pIC50.
1. Fc1cc(-n2ccc3cccnc32)ccc1-c1nc(-c2ccccn2)cn1-c1cccnc1 [Example 11]
2. Cc1ccc(-n2cc(-c3cscn3)nc2-c2ccc(-n3c(C(C)C)nc4cccnc43)cc2)cn1 [Example 98]
3. c1ccc(-c2cn(-c3cccnc3)c(-c3ccc(-n4ccnc4)cc3)n2)nc1 [Example 44]
4. c1ccc(-c2cn(-c3cccnc3)c(-c3ccc(-n4cnc5ncccc54)cc3)n2)nc1 (single isomer, unassigned) [Example 46]
5. COc1nc2cccnc2n1-c1ccc(-c2nc(-c3cscn3)cn2-c2ccc(C)nc2)cc1 [Example 96]
6. Cc1cc(-n2cc(-c3ccccn3)nc2-c2ccc(-n3ccc4cccnc43)cc2)ccn1 [Example 5]
7. c1ccc(-c2cc(-c3cccnc3)n(-c3ccc(-n4ccc5cccnc54)cc3)n2)nc1 [Example 121, bis-TFA salt]
8. c1ccc(-c2cn(-c3cccnc3)c(-c3ccc(-n4nnc5ccccc54)cc3)n2)nc1 [Example 42, bis-TFA salt]

Response given:
1. 8.38
2. 8.95
3. 6.28
4. 6.64
5. 9.16
6. 8.34
7. 8.03
8. 7.17
